Where do the numbers come from? From ChEMBL document CHEMBL5303304.

Items are presented alongside their recorded Growth Rate.
tested on: HEK-293T; assay: Incucyte cell viability with HEK293T; assay type: toxicity, cell-based; settings: human, 12 h, 10 µM, compound concentration 10 uM, replicate number 2; note: unitless GR value; below 1 slowed growth and below 0 cell loss
measuredProperty: Growth Rate

O=C1Nc2ccc(C(=O)c3ccco3)cc2C1=Cc1cc(Cl)c(O)c(Cl)c1 [GW406108X] : 0.31
OC(c1ccc(-c2ccc(CN3CCN(Cc4ccncc4)CC3)cc2)c(F)c1)(C(F)(F)F)C(F)(F)F : 0.08
CN(C)C/C=C/C(=O)Nc1cccc(S(=O)(=O)N2CCC(NC(=O)c3n[nH]cc3NC(=O)c3c(Cl)cc(Cl)cc3Cl)CC2)c1 : -0.7
COC(=O)c1cc2c(cn1)[nH]c1ccccc12 : 0.64
Cl.Cl.O=[N+]([O-])c1ccc(CN2CCOCCOCCN(Cc3ccc([N+](=O)[O-])cc3)CCOCC2)cc1 : 0.2
Cc1n[nH]c2ncc(C(=O)N3CCC[C@H]3c3ccc(Cl)cc3)cc12 : 0.96
CCc1ccc(N(CC(C)C)S(=O)(=O)c2ccc(OCC3CCOCC3)c(CO)c2)cc1 : 0.5
C=C(F)C(=O)N1CCN(c2nc(OC[C@@H]3CCCN3C)nc3c2CCN(c2cccc4cccc(Cl)c24)C3)C[C@@H]1CC#N : -0.57

====

Entries and their measured Growth Rate follow.
test system: U2OS; assay: Incucyte cell viability with U2OS; type: toxicity, cell-based; conditions: human, 24 h, 10 µM, compound concentration 10 uM, replicate number 2; note: unitless GR value; below 1 slowed growth and below 0 cell loss
measuredProperty: Growth Rate

Cc1cc(OCCC(C)(C)O)cc(C)c1-c1ccc(F)c2c1CC[C@H]2Oc1ccc2c(c1)OC[C@H]2CC(=O)O : 0.84
CCc1cncnc1N1CCN(Cc2nc3cc(C(F)(F)F)ccc3[nH]2)CC1 : 0.84
Clc1cccc(Nc2nccc(NCCCN3CCOCC3)n2)c1 : 0.7
N#Cc1ccc(C#CC[C@@H](C#N)NC(=O)[C@@H]2CCCCN2)cc1F : 0.86
CNc1nc(-c2ccc3c(N)n[nH]c3c2)cc(N2C[C@@H](C(=O)NC3CCCCC3)CC[C@H]2C)n1 : 0.72

====

Items are presented alongside their recorded Growth Rate.
system: Fibroblast; test: Incucyte cell viability with human fibroblast; format: toxicity, cell-based; details: 6 h, 10 µM, compound concentration 10 uM, replicate number 2; note: unitless GR value; below 1 slowed growth and below 0 cell loss
measuredProperty: Growth Rate

CCn1cnc2c(-c3ccc(F)c(-c4ccc(S(=O)(=O)CC)cc4OC)c3)cnnc21 [DARIGABAT] : -1
CC[C@@H](C(=O)OC)n1c(=O)c2ccccc2n(Cc2cn(C)c3cccc(C)c23)c1=O : -0.9
O=C(CCCCCCc1ccccc1)c1ncc(-c2ccccn2)o1 : 0.12
CN1CCN(C(=O)c2ccc3cc2OCCOCCNc2ccn4ncc-3c4n2)CC1 : 0.92
CC(Oc1cc(-c2cnn(C3CCNCC3)c2)cnc1N)c1c(Cl)ccc(F)c1Cl (centres undefined) : -0.95
CC[C@]1(C)C[C@@H](OC(=O)CSc2nnc(N)[nH]2)[C@@]2(C)[C@H](C)CC[C@@]3(CCC(=O)[C@H]32)[C@@H](C)[C@@H]1O : -0.93
Cc1cc(CN(CC(=O)Nc2ccc(Cl)cc2Cl)C2CCCCC2)ccc1OCC(=O)O : 0.35
CC1(C)C[C@@H]1C(=O)N/C(=C\CCCCSC[C@H](N)C(=O)O)C(=O)O [CILASTATIN] : 0.61
CC(C)c1ccc(/C=N/NC(=O)c2ccc(O)cc2)cc1 : 0.53
COc1ccccc1-n1nc(C2CC(C)(C)OC(C)(C)C2)cc1-c1ccc(Cl)cc1 : -1
COc1ccc(CCN(C)CCCC(C#N)(c2cc(OC)c(OC)c(OC)c2)C(C)C)cc1OC.Cl (centres undefined) [GALLOPAMIL HYDROCHLORIDE] : 0.16
CCN(C)C(=O)c1ccc2c(c1)NC(=O)/C2=C(\NC1CCN(C)CC1)c1ccccc1 : 0.61
Clc1cccc(-n2nnnc2NCc2ccccc2Oc2ccccn2)c1Cl : -0.47
CCCn1cc(-c2cc(C3C(=O)N(CC)c4ccc(C(F)(F)F)cc4N(c4ccccc4)C3=O)cc(OC)c2O)cn1 (centres undefined) : -0.56
CCOC(=O)c1ncn2c1[C@@H]1CCCN1C(=O)c1cc(OC)ccc1-2 : 0.2
O=C1CCCN1CCNc1nc(Nc2ccc(Cl)c(Cl)c2)ncc1C(F)(F)F : 0.95
N[C@H](C(=O)O)[C@@H]1CC(Cl)=NO1 [ACIVICIN] : -0.62
CCc1nc(C2CCC2)n2nc(-c3ccccc3)[nH]c(=O)c12 : -0.72
Cc1cc(Cn2c(N3CC4(CNC4)C3)nc3cc(Cl)cc(N4CCN(C)CC4)c32)cc(C)c1F : -0.44
